The measurements presented in this section are drawn from patent US20110152314A1.

assay: Phase I study, pharmacokinetic parameters after oral single dose and daily dose for 7 days; assay type: in vivo, human; conditions: human, in vivo, po, 80 mg, single dose 80 mg, oral; read-out: AUC 0-t area under the curve, between time 0 and the last measurable concentration
assay readout: AUC(0-t) (ng·h/mL)

# molecule, recorded result
records = [
    ("COc1ccc2[nH]c([S+]([O-])Cc3ncc(C)c(OC)c3C)nc2n1 (stereo not shown) [tenatoprazole]", 97000),
]

---

assay: Phase I study, pharmacokinetic parameters after oral single dose and daily dose for 7 days; format: in vivo, human; conditions: human, in vivo; single dose 40 mg, oral; read-out: T½ elimination half-life (converted)

# compound, half-life / h
records = [
    ("COc1ccc2[nH]c([S+]([O-])Cc3ncc(C)c(OC)c3C)nc2n1 (stereo not shown) [tenatoprazole]", 6),
]

---

test: Phase I study, pharmacokinetic parameters after oral single dose and daily dose for 7 days; format: in vivo, human; settings: human, in vivo, po, 40 mg, single dose 40 mg, oral; read-out: AUC 0-t area under the curve, between time 0 and the last measurable concentration
assay readout: AUC(0-t) (ng·h/mL)

# compound, assay readout, recorded result
data = [
    ("COc1ccc2[nH]c([S+]([O-])Cc3ncc(C)c(OC)c3C)nc2n1 (stereo not shown) [tenatoprazole]", "AUC(0-t)", 43000),
]

---

experiment: Phase I study, pharmacokinetic parameters after oral single dose and daily dose for 7 days; assay type: in vivo, human; details: human, in vivo; repeated dose (7 days) 20 mg daily, oral; read-out: Tmax time required to attain maximum concentration
assay readout: Tmax at 7 days (h)

# compound, units label, recorded result
measured = [
    ("COc1ccc2[nH]c([S+]([O-])Cc3ncc(C)c(OC)c3C)nc2n1 (stereo not shown) [tenatoprazole]", "h", 2),
]

---

assay: Phase I study, pharmacokinetic parameters after oral single dose and daily dose for 7 days; assay type: in vivo, human; conditions: human, in vivo, po, 40 mg, repeated dose (7 days) 40 mg daily, oral; read-out: AUC 0-t area under the curve, between time 0 and the last measurable concentration
assay readout: AUC(0-t) (ng·h/mL)

# compound, recorded result
records = [
    ("COc1ccc2[nH]c([S+]([O-])Cc3ncc(C)c(OC)c3C)nc2n1 (stereo not shown)", 75000),
]

---

assay: Phase I study, pharmacokinetic parameters after oral single dose and daily dose for 7 days; type: in vivo, human; conditions: human, in vivo; single dose 80 mg, oral; read-out: T½ elimination half-life (converted)
assay readout: half-life (h)

# molecule, recorded result
measured = [
    ("COc1ccc2[nH]c([S+]([O-])Cc3ncc(C)c(OC)c3C)nc2n1 (stereo not shown)", 7),
]

---

experiment: Phase I study, pharmacokinetic parameters after oral single dose and daily dose for 7 days; assay type: in vivo, human; details: human, in vivo; repeated dose (7 days) 80 mg daily, oral; read-out: Tmax time required to attain maximum concentration
assay readout: Tmax at 7 days (h)

# molecule, units label, recorded result
data = [
    ("COc1ccc2[nH]c([S+]([O-])Cc3ncc(C)c(OC)c3C)nc2n1 (stereo not shown)", "h", 2),
]

---

experiment: Phase I study, pharmacokinetic parameters after oral single dose and daily dose for 7 days; type: in vivo, human; settings: human, in vivo, po, 10 mg, single dose 10 mg, oral; read-out: AUC 0-t area under the curve, between time 0 and the last measurable concentration
assay readout: AUC(0-t) (ng·h/mL)

# molecule, recorded result
rows = [
    ("COc1ccc2[nH]c([S+]([O-])Cc3ncc(C)c(OC)c3C)nc2n1 (stereo not shown)", 8000),
]
